- Test system: VDR homodimer (NR concentration 270 nM)
- Method: PBM binding z-score (relative to random genomic background probes); higher = stronger binding; sequences stand for … in GC…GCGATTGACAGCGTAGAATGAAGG
Listing: PBM binding z-score of selected sequences
Reply briefly: the number, and no unit.

INSERT INTO measurements (seq_string, number) VALUES
  ('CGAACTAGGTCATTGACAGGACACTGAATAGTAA', 1.18),
  ('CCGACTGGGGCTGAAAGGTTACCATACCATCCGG', -0.252),
  ('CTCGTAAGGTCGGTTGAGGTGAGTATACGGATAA', 0.937),
  ('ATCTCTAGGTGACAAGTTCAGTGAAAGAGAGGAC', 2.05),
  ('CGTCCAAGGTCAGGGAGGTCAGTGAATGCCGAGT', 5.37),
  ('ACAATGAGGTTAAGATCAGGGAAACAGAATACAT', 0.941),
  ('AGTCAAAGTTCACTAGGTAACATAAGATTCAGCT', 4.22),
  ('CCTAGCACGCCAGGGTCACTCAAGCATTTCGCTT', 0.973);

IN: Output measured PBM binding z-score for this item: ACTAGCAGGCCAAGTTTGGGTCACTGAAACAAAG
OUT: 0.416

IN: Respond only with PBM binding z-score recorded for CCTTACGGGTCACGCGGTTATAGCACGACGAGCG
OUT: 1.19

IN: Item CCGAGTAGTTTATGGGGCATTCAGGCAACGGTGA : provide PBM binding z-score
OUT: 0.37

====

- Test system: VDR:RXRa (NR concentration 270 nM, RXRa partner concentration 90 nM)
- Method: PBM binding z-score (relative to random genomic background probes); higher = stronger binding; sequences stand for … in GC…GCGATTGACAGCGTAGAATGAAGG
Cut-off 3 on PBM binding z-score, inclusive. At or above means true; below means false.

Known results for sequences:
INSERT INTO results (seq_string, category) VALUES
  ('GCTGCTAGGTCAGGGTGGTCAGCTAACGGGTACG', 'false'),
  ('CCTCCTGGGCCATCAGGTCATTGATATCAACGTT', 'false'),
  ('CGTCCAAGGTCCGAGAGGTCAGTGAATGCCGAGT', 'true'),
  ('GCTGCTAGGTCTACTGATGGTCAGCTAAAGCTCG', 'false'),
  ('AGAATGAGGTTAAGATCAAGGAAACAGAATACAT', 'false');

IN: Determine whether measured PBM binding z-score meets or exceeds 3 for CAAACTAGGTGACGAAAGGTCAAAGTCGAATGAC
OUT: true

IN: Reported PBM binding z-score at or above 3? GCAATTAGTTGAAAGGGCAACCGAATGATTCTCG
OUT: false

IN: Kindly determine if PBM binding z-score recorded for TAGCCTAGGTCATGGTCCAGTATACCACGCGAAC is above or exactly 3.
OUT: false

====

- System: RXRa homodimer (NR concentration 180 nM)
- Method: PBM binding z-score (relative to random genomic background probes); higher = stronger binding; sequences stand for … in GC…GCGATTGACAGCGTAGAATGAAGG
Metric: PBM binding z-score
Just the number.

Consider the following illustrative entries.
INSERT INTO assay_data (seq_string, number) VALUES
  ('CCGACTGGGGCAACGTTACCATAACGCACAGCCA', -0.126),
  ('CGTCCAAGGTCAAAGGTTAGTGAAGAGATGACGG', 8.4),
  ('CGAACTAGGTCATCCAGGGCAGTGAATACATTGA', 2.97),
  ('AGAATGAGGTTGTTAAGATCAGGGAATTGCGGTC', 0.15),
  ('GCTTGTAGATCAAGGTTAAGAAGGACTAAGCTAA', 0.716);

Next up:
IN: Provide PBM binding z-score value for the following sequence: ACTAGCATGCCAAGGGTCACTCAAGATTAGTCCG
OUT: 3.91

====

Recorded PBM binding z-score, one value per entry.
- Test system: RARa:RXR (NR concentration 270 nM, RXRa partner concentration 90 nM)
- Method: PBM binding z-score (relative to random genomic background probes); higher = stronger binding; sequences stand for … in GC…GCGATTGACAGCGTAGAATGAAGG
Kindly provide the number alone.

In the examples that follow, each entry is paired with its recorded PBM binding z-score.
INSERT INTO assay_data (seq_string, number) VALUES
  ('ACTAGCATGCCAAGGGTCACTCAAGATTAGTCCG', 4.02),
  ('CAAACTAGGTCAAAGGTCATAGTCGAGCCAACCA', 8.82),
  ('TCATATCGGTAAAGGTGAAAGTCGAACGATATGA', 1.62),
  ('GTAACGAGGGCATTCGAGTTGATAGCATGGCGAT', 0.683);

Next up:
IN: Output PBM binding z-score of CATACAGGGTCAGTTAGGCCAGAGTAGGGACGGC
OUT: 2.17

====

- Tested on: PPARg DBDmut IVT, anti-PPARg (DBD mutation: PPARg1 K132A/R137A, NR concentration 270 nM)
- Method: PBM binding z-score (relative to random genomic background probes); higher = stronger binding; sequences stand for … in GC…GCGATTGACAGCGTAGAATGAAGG
Metric: PBM binding z-score
Please state the value as a number alone, without comment.

These solved cases illustrate the format of a correct answer.
INSERT INTO measurements (seq_string, target_or_system, metric, number) VALUES
  ('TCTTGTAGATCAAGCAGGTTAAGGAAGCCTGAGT', 'PPARg DBDmut IVT, anti-PPARg (DBD mutation: PPARg1 K132A/R137A, NR concentration 270 nM)', 'PBM binding z-score', -0.0431),
  ('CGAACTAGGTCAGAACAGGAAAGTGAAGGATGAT', 'PPARg DBDmut IVT, anti-PPARg (DBD mutation: PPARg1 K132A/R137A, NR concentration 270 nM)', 'PBM binding z-score', 0.812),
  ('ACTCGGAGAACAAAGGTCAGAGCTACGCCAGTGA', 'PPARg DBDmut IVT, anti-PPARg (DBD mutation: PPARg1 K132A/R137A, NR concentration 270 nM)', 'PBM binding z-score', -0.0554),
  ('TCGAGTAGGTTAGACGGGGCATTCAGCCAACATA', 'PPARg DBDmut IVT, anti-PPARg (DBD mutation: PPARg1 K132A/R137A, NR concentration 270 nM)', 'PBM binding z-score', 0.319),
  ('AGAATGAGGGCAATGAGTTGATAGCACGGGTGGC', 'PPARg DBDmut IVT, anti-PPARg (DBD mutation: PPARg1 K132A/R137A, NR concentration 270 nM)', 'PBM binding z-score', 0.0242),
  ('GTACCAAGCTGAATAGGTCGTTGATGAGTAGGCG', 'PPARg DBDmut IVT, anti-PPARg (DBD mutation: PPARg1 K132A/R137A, NR concentration 270 nM)', 'PBM binding z-score', -0.822);

IN: Note PBM binding z-score for the sequence shown: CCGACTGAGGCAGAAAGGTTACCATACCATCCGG
OUT: -0.731

IN: Read off the recorded PBM binding z-score for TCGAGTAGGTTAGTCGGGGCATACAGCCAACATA
OUT: -0.126

IN: Give the reported PBM binding z-score for this sequence. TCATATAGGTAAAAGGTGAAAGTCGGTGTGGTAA
OUT: 0.745

IN: Identify the reported PBM binding z-score for the following entry. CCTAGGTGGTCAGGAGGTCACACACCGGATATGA
OUT: -0.161

IN: Specify reported PBM binding z-score for the sequence shown: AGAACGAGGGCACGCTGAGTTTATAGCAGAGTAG
OUT: 0.317

====

PBM binding z-score listing for selected sequences.
- Tested on: PPARg:RXRa IVT, anti-PPARg (NR concentration 270 nM, RXRa partner concentration 90 nM)
- Method: PBM binding z-score (relative to random genomic background probes); higher = stronger binding; sequences stand for … in GC…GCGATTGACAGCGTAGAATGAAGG
Lab note: jot down the number only; don't add units.

INSERT INTO results (seq_string, number) VALUES
  ('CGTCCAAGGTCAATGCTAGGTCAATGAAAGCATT', 4.3),
  ('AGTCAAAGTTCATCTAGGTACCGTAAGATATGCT', 2.85),
  ('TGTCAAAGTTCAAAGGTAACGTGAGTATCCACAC', 4.72);

IN: In one line, give reported PBM binding z-score of the entry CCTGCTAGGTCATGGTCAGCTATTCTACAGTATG .
OUT: 3.4

IN: # return recorded PBM binding z-score for entry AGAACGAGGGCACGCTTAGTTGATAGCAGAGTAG
OUT: 4.09

IN: Give PBM binding z-score for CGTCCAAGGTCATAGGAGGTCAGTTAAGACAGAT
OUT: 4.5

IN: Please report PBM binding z-score for the following sequence: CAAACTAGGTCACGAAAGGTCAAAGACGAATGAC
OUT: 9.24

IN: Please give the documented PBM binding z-score of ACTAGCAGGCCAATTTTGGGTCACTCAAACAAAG
OUT: 1.84

IN: For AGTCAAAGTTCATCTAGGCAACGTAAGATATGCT , write its PBM binding z-score.
OUT: 3.08

IN: Write down PBM binding z-score measured for item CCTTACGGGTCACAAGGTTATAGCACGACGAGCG
OUT: 4.65

IN: For the sequence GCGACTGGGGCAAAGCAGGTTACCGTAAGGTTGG , report PBM binding z-score.
OUT: 3.74

IN: # return recorded PBM binding z-score for input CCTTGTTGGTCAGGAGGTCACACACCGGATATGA
OUT: 3.58

IN: Give PBM binding z-score for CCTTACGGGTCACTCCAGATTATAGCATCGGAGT
OUT: 3.47

IN: Return PBM binding z-score (reported value) for this sequence: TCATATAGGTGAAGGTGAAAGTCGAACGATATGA
OUT: 6.13

IN: In one line, give reported PBM binding z-score of the entry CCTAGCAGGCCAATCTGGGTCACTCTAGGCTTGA .
OUT: 4.77

IN: Hello, please tell me recorded PBM binding z-score for this one: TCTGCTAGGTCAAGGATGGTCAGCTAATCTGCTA
OUT: 4.08

IN: Using known records, supply PBM binding z-score for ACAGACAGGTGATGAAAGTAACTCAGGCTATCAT
OUT: 0.107

IN: Give the measured PBM binding z-score for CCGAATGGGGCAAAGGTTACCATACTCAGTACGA
OUT: 4.5

IN: Return PBM binding z-score (reported value) for this sequence: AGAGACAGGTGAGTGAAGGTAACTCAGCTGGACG
OUT: 0.599

IN: Indicate the recorded PBM binding z-score value for this sequence: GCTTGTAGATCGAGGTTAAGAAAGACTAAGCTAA
OUT: 0.569

IN: Determine its reported PBM binding z-score: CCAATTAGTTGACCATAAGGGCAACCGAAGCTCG
OUT: 0.411
